- PROTOCOL: in vivo
- Design: species or system mice
- EXPERIMENTAL CONTEXT: male, SCID, mouse, iv, 730 kBq, total radioactivity, Tumor/Stomach ratio
Residues, ends and D or L forms follow the SMILES beside them. *: point of attachment. DOTA = O=C(O)CN1CCN(CC(=O)O)CCN(CC(=O)*)CCN(CC(=O)O)CC1; X1 = Cc1ccc(CCCC(=O)NCCOCCOCCOCCOCC(=O)*)cc1; βAla = NCCC(=O)O
QUANTITY MEASURED: tissue to tissue ratio at 72 h
Reply with the value as a number alone.

Prompt: Which tissue to tissue ratio at 72 h value belongs to CC[C@H](C)[C@H](NC(=O)[C@H](Cc1ccc(O)cc1)NC(=O)[C@@H]1CCCN1C(=O)[C@H](CCCNC(=N)N)NC(=O)[C@H](CCCNC(=N)N)NC(=O)[C@H](CCCCNC(=O)COCCOCCOCCOCCNC(=O)CCCc1ccc(C)cc1)NC(=O)CCNC(=O)CCNC(=O)CCNC(=O)CN1CCN(CC(=O)O)CCN(CC(=O)O)CCN(CC(=O)O)CC1)C(=O)N[C@@H](CC(C)C)C(=O)O [[^177Lu]Lu-DT14D, metal not drawn] ({DOTA-βAla-βAla-βAla}-K(X1)RRPYIL-OH) ?
Completion: 26.6

----------
- PROTOCOL: in vivo
- Design: species or system mice
- EXPERIMENTAL CONTEXT: male, SCID, mouse, iv, 730 kBq, total radioactivity, Biodistribution, Liver
Residues, ends and D or L forms follow the SMILES beside them. *: point of attachment. DOTA = O=C(O)CN1CCN(CC(=O)O)CCN(CC(=O)*)CCN(CC(=O)O)CC1; X1 = Cc1ccc(CCCC(=O)NCCOCCOCCOCCOCC(=O)*)cc1; βAla = NCCC(=O)O
QUANTITY MEASURED: tissue uptake at 48 h (%ID/g)
// return numeric value only (unit: %ID/g, not printed)

Prompt: Could you share which tissue uptake at 48 h value was measured for CC[C@H](C)[C@H](NC(=O)[C@H](Cc1ccc(O)cc1)NC(=O)[C@@H]1CCCN1C(=O)[C@H](CCCNC(=N)N)NC(=O)[C@H](CCCNC(=N)N)NC(=O)[C@H](CCCCNC(=O)COCCOCCOCCOCCNC(=O)CCCc1ccc(C)cc1)NC(=O)CCNC(=O)CCNC(=O)CCNC(=O)CN1CCN(CC(=O)O)CCN(CC(=O)O)CCN(CC(=O)O)CC1)C(=O)N[C@@H](CC(C)C)C(=O)O [[^177Lu]Lu-DT14D, metal not drawn] ({DOTA-βAla-βAla-βAla}-K(X1)RRPYIL-OH) ?
Completion: 0.96

----------
- PROTOCOL: in vivo
- Design: species or system mice
- EXPERIMENTAL CONTEXT: male, SCID, mouse, iv, 730 kBq, total radioactivity, Biodistribution, Blood
Residues, ends and D or L forms follow the SMILES beside them. *: point of attachment. DOTA = O=C(O)CN1CCN(CC(=O)O)CCN(CC(=O)*)CCN(CC(=O)O)CC1; X1 = Cc1ccc(CCCC(=O)NCCOCCOCCOCCOCC(=O)*)cc1; βAla = NCCC(=O)O
QUANTITY MEASURED: tissue uptake at 72 h (%ID/g)
Just the number in %ID/g, nothing appended.

Prompt: # query: tissue uptake at 72 h of entry CC[C@H](C)[C@H](NC(=O)[C@H](Cc1ccc(O)cc1)NC(=O)[C@@H]1CCCN1C(=O)[C@H](CCCNC(=N)N)NC(=O)[C@H](CCCNC(=N)N)NC(=O)[C@H](CCCCNC(=O)COCCOCCOCCOCCNC(=O)CCCc1ccc(C)cc1)NC(=O)CCNC(=O)CCNC(=O)CCNC(=O)CN1CCN(CC(=O)O)CCN(CC(=O)O)CCN(CC(=O)O)CC1)C(=O)N[C@@H](CC(C)C)C(=O)O [[^177Lu]Lu-DT14D, metal not drawn] ({DOTA-βAla-βAla-βAla}-K(X1)RRPYIL-OH)
Completion: 0.04

----------
- PROTOCOL: in vivo
- Parameters: species or system mice
- EXPERIMENTAL CONTEXT: male, SCID, mouse, iv, 730 kBq, total radioactivity, Tumor/Intestines ratio
- From the text: The distribution of [^67Ga]Ga/[^111In]In/[^177Lu]Lu-DT14D was investigated in male severe combined immunodeficiency (SCID) mice (49 mice in total, 6 weeks of age on arrival date, 22 ± 4 g, NCSR “Demokritos” Animal House, Athens, Greece) bearing NTS1R-positive AsPC-1 xenografts in their flanks. […] The animals were euthanized at predetermined time intervals, dissected and blood samples, organs of interest, and tumors were collected, weighed, and counted in the gamma counter. […]
Residues, ends and D or L forms follow the SMILES beside them. *: point of attachment. DOTA = O=C(O)CN1CCN(CC(=O)O)CCN(CC(=O)*)CCN(CC(=O)O)CC1; X1 = Cc1ccc(CCCC(=O)NCCOCCOCCOCCOCC(=O)*)cc1; βAla = NCCC(=O)O
QUANTITY MEASURED: tissue to tissue ratio at 48 h
The answer should be a number; do not append a unit.

Prompt: What does the record list as tissue to tissue ratio at 48 h for CC[C@H](C)[C@H](NC(=O)[C@H](Cc1ccc(O)cc1)NC(=O)[C@@H]1CCCN1C(=O)[C@H](CCCNC(=N)N)NC(=O)[C@H](CCCNC(=N)N)NC(=O)[C@H](CCCCNC(=O)COCCOCCOCCOCCNC(=O)CCCc1ccc(C)cc1)NC(=O)CCNC(=O)CCNC(=O)CCNC(=O)CN1CCN(CC(=O)O)CCN(CC(=O)O)CCN(CC(=O)O)CC1)C(=O)N[C@@H](CC(C)C)C(=O)O [[^177Lu]Lu-DT14D, metal not drawn] ({DOTA-βAla-βAla-βAla}-K(X1)RRPYIL-OH) ?
Completion: 4.28

----------
- PROTOCOL: in vivo
- Design: species or system mice
- EXPERIMENTAL CONTEXT: male, SCID, mouse, iv, total radioactivity, Tumor/Lungs ratio
Residues, ends and D or L forms follow the SMILES beside them. *: point of attachment. DOTA = O=C(O)CN1CCN(CC(=O)O)CCN(CC(=O)*)CCN(CC(=O)O)CC1; X1 = Cc1ccc(CCCC(=O)NCCOCCOCCOCCOCC(=O)*)cc1; βAla = NCCC(=O)O
QUANTITY MEASURED: tissue to tissue ratio at 1 h
Lab note: jot the number down without any unit.

Prompt: May I ask what tissue to tissue ratio at 1 h has been recorded for CC[C@H](C)[C@H](NC(=O)[C@H](Cc1ccc(O)cc1)NC(=O)[C@@H]1CCCN1C(=O)[C@H](CCCNC(=N)N)NC(=O)[C@H](CCCNC(=N)N)NC(=O)[C@H](CCCCNC(=O)COCCOCCOCCOCCNC(=O)CCCc1ccc(C)cc1)NC(=O)CCNC(=O)CCNC(=O)CCNC(=O)CN1CCN(CC(=O)O)CCN(CC(=O)O)CCN(CC(=O)O)CC1)C(=O)N[C@@H](CC(C)C)C(=O)O [[^67Ga]Ga-DT14D, metal not drawn] ({DOTA-βAla-βAla-βAla}-K(X1)RRPYIL-OH) ?
Completion: 2.64
